targetUnderTest: human CYP11B1 (Homo sapiens, UniProt P15538)
Construct: expressed in transfected cells
Sequence (P15538 25-503): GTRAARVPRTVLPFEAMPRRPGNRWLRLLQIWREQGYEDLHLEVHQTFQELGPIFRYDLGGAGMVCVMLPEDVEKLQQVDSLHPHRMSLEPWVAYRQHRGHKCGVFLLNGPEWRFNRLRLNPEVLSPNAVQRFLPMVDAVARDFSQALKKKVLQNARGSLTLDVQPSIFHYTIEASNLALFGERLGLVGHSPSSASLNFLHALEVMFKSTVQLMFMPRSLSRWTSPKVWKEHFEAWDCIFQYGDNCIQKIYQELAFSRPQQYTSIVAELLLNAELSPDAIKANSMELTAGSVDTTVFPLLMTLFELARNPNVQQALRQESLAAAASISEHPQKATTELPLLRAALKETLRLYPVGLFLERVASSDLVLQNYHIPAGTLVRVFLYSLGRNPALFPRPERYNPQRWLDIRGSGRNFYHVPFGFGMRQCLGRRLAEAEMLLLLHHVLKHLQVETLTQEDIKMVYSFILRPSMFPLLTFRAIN
experimentDescription: G-402 cellular enzyme assay, human CYP11B1 (cortisol release, HTRF)
Format: cell-based
recordedConditions: G-402 cells, 1 μM Deoxycortisol
pEC50: −log10 of the molar value.

molecule	pEC50
O=C1c2ccc(Cl)cc2CCN1c1cncc(CN2CCC[C@@H]2CO)c1	5.27
Cn1ncc2c(N3Cc4cc(Cl)ccc4C3=O)cncc21	5.29
CC1(C)c2cc(Cl)ccc2C(=O)N1c1cncc(CN2CCCCC2=O)c1	5.76
CC1(C)c2cc(Cl)ccc2C(=O)N1c1cncc(OC(F)F)c1	6.58
O=C(Nc1cncc(N2CCc3cc(Cl)ccc3C2=O)c1)C1CC1	5.58
CC[C@@H]1c2cc(Cl)ccc2C(=O)N1c1cncc2c1CC[C@@H]2NC(C)=O (single isomer, unassigned)	7.02
Cc1ccn(Cc2cncc(N3CCc4cc(Cl)ccc4C3=O)c2)n1	5.14
CC1(C)CN(c2cncc(F)c2)C(=O)c2ccc(Cl)cc21	4.22
O=C1CCCN1Cc1cncc(N2Cc3cc(Cl)ccc3C2=O)c1	4.92

Numbers sourced from patent US9133158B2.
